Values were extracted from ChEMBL document CHEMBL1133436.

Species on record: Homo sapiens
Assay: Selectivity for alpha-2a to that of alpha2b determined by their binding affinity ratios
Measured Parameter: Selectivity

O=C(NCCCCCCCCCNC(=O)[C@@H]1[C@H]2C[C@H]3c4[nH]c5ccccc5c4CCN3C[C@@H]2CC[C@@H]1O)[C@@H]1[C@H]2C[C@H]3c4[nH]c5ccccc5c4CCN3C[C@@H]2CC[C@@H]1O	35.8
O=C(NCCCCCCCCNC(=O)[C@@H]1[C@H]2C[C@H]3c4[nH]c5ccccc5c4CCN3C[C@@H]2CC[C@@H]1O)[C@@H]1[C@H]2C[C@H]3c4[nH]c5ccccc5c4CCN3C[C@@H]2CC[C@@H]1O	60.5

[a] O=C(NCCCCCCCCCCNC(=O)[C@@H]1[C@H]2C[C@H]3c4[nH]c5ccccc5c4CCN3C[C@@H]2CC[C@@H]1O)[C@@H]1[C@H]2C[C@H]3c4[nH]c5ccccc5c4CCN3C[C@@H]2CC[C@@H]1O
[b] O=C(NCCCCCCCCCCCCNC(=O)[C@@H]1[C@H]2C[C@H]3c4[nH]c5ccccc5c4CCN3C[C@@H]2CC[C@@H]1O)[C@@H]1[C@H]2C[C@H]3c4[nH]c5ccccc5c4CCN3C[C@@H]2CC[C@@H]1O
Input line: Which is greater in Selectivity, the first item a or the second item b ? Let me know the label of the one you choose.
Output line: a
